# System: Aspergillus fumigatus
# PROCEDURE TEXT: Antimicrobial activity against Aspergillus fumigatus ATCC 204305 by Alamar blue method
# Assay type: functional, organism-based
ENDPOINT LABEL: MFC (mg/L)
Numbers only, in mg/L.

{"columns": ["GIVEN SMILES", "MFC [mg/L]"],
 "data": [
  ["N#Cc1ccccc1CSc1cc2ccccc2[n+](CCCCCC2CCCCC2)c1.[I-]", 20],
  ["Brc1ccc(CSc2cc3ccccc3[n+](CCCCCC3CCCCC3)c2)cc1.[I-]", 5]
]}

Suppose we examine the compound Brc1ccccc1CSc1cc2ccccc2[n+](CCCCCC2CCCCC2)c1.[I-] ; what MFC value has been reported?
20

----------
# System: Staphylococcus aureus
# PROCEDURE TEXT: Antimicrobial activity against Staphylococcus aureus ATCC 29213 by Alamar blue method
# Assay type: functional, organism-based
# RUN PARAMETERS: Staphylococcus aureus, ATCC 29213
Could you mark each record true (1) if its MIC falls strictly under 1 µg/mL, and false (0) if it equals or exceeds it?

Here's what some known entries look like.
{"columns": ["GIVEN SMILES", "CLASS"],
 "data": [
  ["[I-].c1ccc(CCSc2cc3ccccc3[n+](CCCCCC3CCCCC3)c2)cc1", "false (0)"],
  ["Ic1cc2ccccc2[n+](CCCCCC2CCCCC2)c1.[I-]", "false (0)"],
  ["Cc1ccccc1CSc1cc2ccccc2[n+](CCCCCC2CCCCC2)c1.[I-]", "true (1)"],
  ["Cc1cccc(CSc2cc3ccccc3[n+](CCCCCC3CCCCC3)c2)c1.[I-]", "false (0)"],
  ["[I-].c1ccc(CSc2cc3ccccc3[n+](CCCCCC3CCCCC3)c2)cc1", "true (1)"],
  ["N#Cc1ccc(CSc2cc3ccccc3[n+](CCCCCC3CCCCC3)c2)cc1.[I-]", "false (0)"],
  ["[I-].c1ccc2c(c1)cc(SC1CCCCC1)c[n+]2CCCCCC1CCCCC1", "false (0)"],
  ["Fc1ccccc1CSc1cc2ccccc2[n+](CCCCCC2CCCCC2)c1.[I-]", "false (0)"]
]}

In plain terms, does Fc1cccc(CSc2cc3ccccc3[n+](CCCCCC3CCCCC3)c2)c1.[I-] come in under 1 µg/mL for MIC?
true (1)

Again, but for O=C(O)c1cn(C2CC2)c2cc(N3CCNCC3)c(F)cc2c1=O
true (1)

Again, but for Cc1cc(C)c(CSc2cc3ccccc3[n+](CCCCCC3CCCCC3)c2)c(C)c1.[I-]
true (1)

Again, but for Brc1ccccc1CSc1cc2ccccc2[n+](CCCCCC2CCCCC2)c1.[I-]
true (1)

Again, but for FC(F)(F)c1cccc(CSc2cc3ccccc3[n+](CCCCCC3CCCCC3)c2)c1.[I-]
true (1)

Again, but for N#Cc1cccc(CSc2cc3ccccc3[n+](CCCCCC3CCCCC3)c2)c1.[I-]
false (0)

Again, but for [I-].c1ccc(Oc2cc3ccccc3[n+](CCCCCC3CCCCC3)c2)cc1
false (0)

Again, but for COc1ccc(CSc2cc3ccccc3[n+](CCCCCC3CCCCC3)c2)cc1.[I-]
true (1)

Again, but for Fc1ccc(Oc2cc3ccccc3[n+](CCCCCC3CCCCC3)c2)cc1.[I-]
false (0)

Again, but for Brc1cccc(CSc2cc3ccccc3[n+](CCCCCC3CCCCC3)c2)c1.[I-]
true (1)

Again, but for CC(C)(C)c1ccc(CSc2cc3ccccc3[n+](CCCCCC3CCCCC3)c2)cc1.[I-]
false (0)

Again, but for Clc1ccc(CSc2cc3ccccc3[n+](CCCCCC3CCCCC3)c2)cc1.[I-]
true (1)

----------
Record form. Attribute: log10 of IC50. Fill in for each entry.
# System: Nakaseomyces glabratus
# PROCEDURE TEXT: Antimicrobial activity against Candida glabrata by Alamar blue method
# Format: functional, organism-based
Lab note - IC50 converted to log10 from values in µg/mL.

Below: 9 compounds and their reported log10 of IC50.
{"columns": ["GIVEN SMILES", "log10 of IC50"],
 "data": [
  ["[I-].c1ccc2c(c1)cc(SC1CCCCC1)c[n+]2CCCCCC1CCCCC1", 1.18],
  ["Fc1ccc(CSc2cc3ccccc3[n+](CCCCCC3CCCCC3)c2)cc1.[I-]", 0.11],
  ["COc1ccccc1CSc1cc2ccccc2[n+](CCCCCC2CCCCC2)c1.[I-]", 0.91],
  ["[I-].c1ccc2cc(Sc3cc4ccccc4[n+](CCCCCC4CCCCC4)c3)ccc2c1", -0.06],
  ["Clc1ccc(CSc2cc3ccccc3[n+](CCCCCC3CCCCC3)c2)cc1Cl.[I-]", 0.48],
  ["N#Cc1cccc(CSc2cc3ccccc3[n+](CCCCCC3CCCCC3)c2)c1.[I-]", 0.67],
  ["Brc1ccccc1CSc1cc2ccccc2[n+](CCCCCC2CCCCC2)c1.[I-]", 0.53],
  ["Cc1cc(C)c(CSc2cc3ccccc3[n+](CCCCCC3CCCCC3)c2)c(C)c1.[I-]", 0.23],
  ["COc1ccc(CSc2cc3ccccc3[n+](CCCCCC3CCCCC3)c2)cc1.[I-]", 0.48]
]}

Moving on to the next compound.
Suppose we examine the compound Cc1ccccc1CSc1cc2ccccc2[n+](CCCCCC2CCCCC2)c1.[I-] ; what log10 of IC50 value has been reported?
0.45

----------
# System: Aspergillus fumigatus
# PROCEDURE TEXT: Antimicrobial activity against Aspergillus fumigatus ATCC 204305 by Alamar blue method
# Assay type: functional, organism-based
Record form. Attribute: IC50. Fill in for each entry.
One number for each entry, in µg/mL.

{"columns": ["GIVEN SMILES", "IC50, µg/mL"],
 "data": [
  ["N#Cc1ccccc1CSc1cc2ccccc2[n+](CCCCCC2CCCCC2)c1.[I-]", 11]
]}

Working through the 3 compounds below one at a time, give IC50 for each.
1. COc1ccccc1CSc1cc2ccccc2[n+](CCCCCC2CCCCC2)c1.[I-]
2. Cc1cc(C)c(CSc2cc3ccccc3[n+](CCCCCC3CCCCC3)c2)c(C)c1.[I-]
3. Oc1ccc(CSc2cc3ccccc3[n+](CCCCCC3CCCCC3)c2)cc1.[I-]

1: 9.8; 2: 2.3; 3: 16

----------
Record form. Attribute: MFC. Fill in for each entry.
# Tested on: Nakaseomyces glabratus
# PROCEDURE TEXT: Antimicrobial activity against Candida glabrata by Alamar blue method
# Assay type: functional, organism-based

{"columns": ["GIVEN SMILES", "MFC"],
 "data": [
  ["[I-].c1ccc(Oc2cc3ccccc3[n+](CCCCCC3CCCCC3)c2)cc1", "> 20 µg/mL"]
]}

Working through the 3 compounds below one at a time, give MFC for each.
1. Clc1cc(Cl)cc(CSc2cc3ccccc3[n+](CCCCCC3CCCCC3)c2)c1.[I-]
2. N#Cc1ccccc1CSc1cc2ccccc2[n+](CCCCCC2CCCCC2)c1.[I-]
3. Fc1ccc(Oc2cc3ccccc3[n+](CCCCCC3CCCCC3)c2)cc1.[I-]

["> 20 µg/mL", "> 20 µg/mL", "> 20 µg/mL"]

----------
Record form. Attribute: MFC. Fill in for each entry.
# Test system: Nakaseomyces glabratus
# PROCEDURE TEXT: Antimicrobial activity against Candida glabrata by Alamar blue method
# Type: functional, organism-based

Working through the 3 molecules below one at a time, give MFC for each.
1. [I-].c1ccc2cc(Sc3cc4ccccc4[n+](CCCCCC4CCCCC4)c3)ccc2c1
2. Ic1cc2ccccc2[n+](CCCCCC2CCCCC2)c1.[I-]
3. COc1ccccc1CSc1cc2ccccc2[n+](CCCCCC2CCCCC2)c1.[I-]

["2.5 µg/mL", "> 20 µg/mL", "20 µg/mL"]

Working through the 2 molecules below one at a time, give MFC for each.
1. Clc1ccc(CSc2cc3ccccc3[n+](CCCCCC3CCCCC3)c2)cc1Cl.[I-]
2. Oc1ccc(CSc2cc3ccccc3[n+](CCCCCC3CCCCC3)c2)cc1.[I-]

5 µg/mL
20 µg/mL

----------
# Test system: Pichia kudriavzevii
# PROCEDURE TEXT: Antimicrobial activity against Candida krusei ATCC 6258 by Alamar blue method
# Type: functional, organism-based
Could you mark each record label 1 if its MIC falls strictly under 1 mg/L, and label 0 if it equals or exceeds it?

Here's what some known entries look like.
{"columns": ["GIVEN SMILES", "CLASS"],
 "data": [
  ["Clc1cc(Cl)cc(CSc2cc3ccccc3[n+](CCCCCC3CCCCC3)c2)c1.[I-]", "label 0"],
  ["Fc1ccccc1CSc1cc2ccccc2[n+](CCCCCC2CCCCC2)c1.[I-]", "label 0"],
  ["Clc1ccc(CSc2cc3ccccc3[n+](CCCCCC3CCCCC3)c2)cc1Cl.[I-]", "label 0"]
]}

Now take the following compound into account.
In plain terms, does Cc1ccc(CSc2cc3ccccc3[n+](CCCCCC3CCCCC3)c2)cc1.[I-] come in under 1 mg/L for MIC?
label 0
